- ASSAY_EXPLANATION: The compound was evaluated for in Vitro binding of AFB1 to DNA in rat liver microsomes; Pre-incubation time being 30 mins
- TEST_CONDITIONS: Microsome
# inhibition per entry
Just the number please, in %, no unit attached.

Examples with answers:
COMPOUND | inhibition / %
CC(=O)Oc1cc(OC(C)=O)c2c(=O)c(OC(C)=O)c(-c3ccc(OC(C)=O)c(OC(C)=O)c3)oc2c1 | 18
O=c1c(O)c(-c2ccc(O)c(O)c2)oc2cc(O)cc(O)c12 [QUERCETIN] | 6.2
Cc1cc(=O)oc2c(O)c(O)ccc12 [4-METHYLDAPHNETIN] | 8.9

// next item, inhibition requested
Problem: Would you mind telling me what inhibition value was observed for "CC(=O)Oc1ccc2c(C)cc(=O)oc2c1OC(C)=O" ?
Result: 56.8

Value source: ChEMBL document CHEMBL1135327
